Ref: patent US20170298096A1

MEASUREMENT_TARGET: T1, His-tagged P3028 peptide (PGE73) (human)
T1 construct: albumin-derived peptide, in solution at 0.5 ug/mL; not shown: His-tag
T1 peptide: VFDEFKPLVEEPQNLIK
ASSAY: PEPSCAN ELISA, peptide on card
Think of 500 as a floor: if RAMPO Score stands on it or above, it is Met; beneath it, Not met.

The following binders have reported results that may help.
binder="KKLDTFFVKLQLFTER (also called 30678) [SEQ ID NO: 348 KKLDTFFVKLQLFTER]" label=Met
binder="RKLDTFFVKLSLFTER [SEQ ID NO: 279 RKLDTFFVKLSLFTER]" label=Met
binder="KKADTFFVKLSLFTER [SEQ ID NO: 282 KKADTFFVKLSLFTER]" label="Not met"
binder="AKLDTFFVKLSLFTER [SEQ ID NO: 268 AKLDTFFVKLSLFTER]" label="Not met"
binder="KKLDTFFPKLSLFTER (also called 32251) [SEQ ID NO: 329 KKLDTFFPKLSLFTER]" label="Not met"
binder="KKLDTFFVKLSLQTER [SEQ ID NO: 370 KKLDTFFVKLSLQTER]" label=Met
binder="KKLDTFFVKYSLFTER [SEQ ID NO: 344 KKLDTFFVKYSLFTER]" label="Not met"
binder="KKRDTFFVKLSLFTER [SEQ ID NO: 294 KKRDTFFVKLSLFTER]" label="Not met"
binder="KKLETFFVKLSLFTER [SEQ ID NO: 299 KKLETFFVKLSLFTER]" label="Not met"
binder="QKLDTFFVKLSLFTER [SEQ ID NO: 278 QKLDTFFVKLSLFTER]" label="Not met"

Say whether KKTDTFFVKLSLFTER [SEQ ID NO: 296 KKTDTFFVKLSLFTER] shows RAMPO Score of 500 or more. Not met

Same lookup for KKLDTTFVKLSLFTER [SEQ ID NO: 318 KKLDTTFVKLSLFTER] , please. Not met

Next binder up: VKLDTFFVKLSLFTER [SEQ ID NO: 281 VKLDTFFVKLSLFTER] Not met

Please give the result for KKLDTFFVKLSQFTER [SEQ ID NO: 355 KKLDTFFVKLSQFTER] too. Met

# iterate: KKLDTFFVKLSLFFER [SEQ ID NO: 376 KKLDTFFVKLSLFFER] Not met
